The reported measurements were obtained from patent US10428140B2.

Biological target: T1, human EphB1 (Homo sapiens, UniProt P54762)
T1 construct: a protein of the extracellular region of each human Eph receptor fused with the SEAP protein and the His tag; made in house; host or cells: Expi293F cells (culture supernatant)
T1 sequence (P54762 18-540 limits assumed): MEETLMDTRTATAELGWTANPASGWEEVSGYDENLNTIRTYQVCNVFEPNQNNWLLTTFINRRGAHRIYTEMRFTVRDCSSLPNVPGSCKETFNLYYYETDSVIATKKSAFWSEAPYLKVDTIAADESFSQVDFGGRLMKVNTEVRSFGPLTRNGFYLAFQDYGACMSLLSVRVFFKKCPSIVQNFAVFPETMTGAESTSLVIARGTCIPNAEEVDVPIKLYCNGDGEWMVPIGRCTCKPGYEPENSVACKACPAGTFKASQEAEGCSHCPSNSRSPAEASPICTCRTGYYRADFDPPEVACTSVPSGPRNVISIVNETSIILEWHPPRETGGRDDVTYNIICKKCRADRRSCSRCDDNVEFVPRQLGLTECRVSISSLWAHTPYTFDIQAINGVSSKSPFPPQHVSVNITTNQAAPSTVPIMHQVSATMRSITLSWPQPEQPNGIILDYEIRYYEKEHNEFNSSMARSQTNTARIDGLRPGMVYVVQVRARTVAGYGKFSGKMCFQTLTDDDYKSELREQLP
Test: Selectivity ELISA of humanized antibodies for human Eph receptor
Assay type: binding
Details: coated protein 1 nM
VALUE_KIND: hEphB1-SEAP-: absorbance at 450 nm, percentage with respect to hEphA4-SEAP-His as 100% (%)
Respond with the bare value in %.

Kindly indicate its recorded hEphB1-SEAP-: absorbance at 450 nm, percentage with respect to hEphA4-SEAP-His as 100%. Item: 155 (antibody, V domains shown, synthetic humanized antibody heavy chain variable region sequence; synthetic humanized antibody light chain variable region sequence) VH: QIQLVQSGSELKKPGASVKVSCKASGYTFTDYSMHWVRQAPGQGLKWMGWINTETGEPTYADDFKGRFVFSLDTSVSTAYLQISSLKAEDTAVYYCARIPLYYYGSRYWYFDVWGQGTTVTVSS VL: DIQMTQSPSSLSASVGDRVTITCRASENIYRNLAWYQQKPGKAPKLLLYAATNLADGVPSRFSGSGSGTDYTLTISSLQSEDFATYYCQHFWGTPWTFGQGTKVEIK
5.4
